The measurements presented in this section are drawn from paper PMC5540273.

System: FLT4;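 note: KINOMEscan kinase panel screen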
Condition Context: concentration: 1 μM,replicates: in singlicate; n = 1
Endpoint Label: %Inh (%)
Please reply with the bare figure in % and do not write the unit itself.

Record request: %Inh value, item Cc1ccc(CC(=O)N2CCc3cc(-c4cn(C)c5ncnc(N)c45)ccc32)cc1
0

Record request: %Inh value, item O=C(Nc1ccccc1)c1cccc(Oc2ccc3nccn3n2)c1
5

Record request: %Inh value, item Cc1ccc(C(=O)Nc2ccc(Oc3ccc4nc(NC(=O)C5CC5)cn4c3)c(F)c2)c(=O)n1-c1ccccc1
100

Record request: %Inh value, item Cc1cccc2c(-c3ccncc3)c(-c3ccc(F)cc3)nn12.Cl
0
